- Assay Remarks: Initial plasma concentration in male CD-1 mouse at 4 mg/kg, iv by LC-MS/MS analysis
- Format: ADME, organism-based
Quantity Kind: C0
Answer shape: numeric part, then the unit.

// C0 value for CC(C)[C@@H]1NC(=O)[C@@H](Cc2ccc(O)cc2)NC(=O)CC[C@@H](C(N)=O)NC(=O)[C@@H]2CCCN2C(=O)[C@@H]2CCCN2C(=O)C2CSc3c(F)c(F)c(c(F)c3F)-c3c(F)c(F)c(c(F)c3F)SC[C@H](NC1=O)C(=O)N[C@@H](Cc1ccccc1)C(=O)N[C@@H](Cc1c[nH]cn1)C(=O)N[C@@H]([C@@H](C)O)C(=O)N[C@@H]([C@@H](C)O)C(=O)N[C@@H]([C@@H](C)O)C(=O)N1CCC[C@H]1C(=O)N[C@@H](Cc1ccccc1)C(=O)N2 : 12100 ng/mL

----------
- Assay Remarks: Half life in male CD-1 mouse at 4 mg/kg, iv by LC-MS/MS analysis
- Type: ADME, organism-based
- Experimental Setup: in vivo
Quantity Kind: half-life
Answer shape: numeric part, then the unit.

// half-life value for CC(C)[C@@H]1NC(=O)[C@@H](Cc2ccc(O)cc2)NC(=O)CC[C@@H](C(N)=O)NC(=O)[C@@H]2CCCN2C(=O)[C@@H]2CCCN2C(=O)C2CSc3c(F)c(F)c(c(F)c3F)-c3c(F)c(F)c(c(F)c3F)SC[C@H](NC1=O)C(=O)N[C@@H](Cc1ccccc1)C(=O)N[C@@H](Cc1c[nH]cn1)C(=O)N[C@@H]([C@@H](C)O)C(=O)N[C@@H]([C@@H](C)O)C(=O)N[C@@H]([C@@H](C)O)C(=O)N1CCC[C@H]1C(=O)N[C@@H](Cc1ccccc1)C(=O)N2 : 29.9 min

----------
- Target: Replicase polyprotein 1ab (Severe acute respiratory syndrome coronavirus 2)
Quantity Kind: IC50 (µM)
Entry rule: numbers only, all in µM.

>>> reading("CC(C)[C@@H]1NC(=O)[C@@H](Cc2ccc(O)cc2)NC(=O)CC[C@@H](C(=O)NCC(N)=O)NC(=O)[C@@H]2CCCN2C(=O)[C@@H]2CCCN2C(=O)[C@@H]2CSCc3cccc(c3)CSC[C@H](NC1=O)C(=O)N[C@@H](Cc1ccccc1)C(=O)N[C@@H](Cc1c[nH]cn1)C(=O)N[C@@H]([C@@H](C)O)C(=O)N[C@@H]([C@@H](C)O)C(=O)N[C@@H]([C@@H](C)O)C(=O)N1CCC[C@H]1C(=O)N[C@@H](Cc1ccccc1)C(=O)N2")
0.44
>>> reading("CC(C)C[C@@H]1NC(=O)[C@H](C)NC(=O)[C@@H]2CCCN2C(=O)[C@H]([C@@H](C)O)NC(=O)[C@H]([C@@H](C)O)NC(=O)[C@H]([C@@H](C)O)NC(=O)[C@H](Cc2c[nH]cn2)NC(=O)[C@H](Cc2ccccc2)NC(=O)[C@H]([C@@H](C)O)NC(=O)[C@H](C(C)C)NC(=O)[C@@H](Cc2ccc(O)cc2)NC(=O)CSC[C@@H](C(=O)NCC(N)=O)NC(=O)[C@@H]2CCCN2C(=O)[C@@H]2CCCN2C1=O")
5.78

// next item, IC50 requested
Replicase polyprotein 1ab (Severe acute respiratory syndrome coronavirus 2) data for CC(C)C[C@@H]1NC(=O)[C@H](Cc2ccccc2)NC(=O)[C@@H]2CCCN2C(=O)[C@H]([C@@H](C)O)NC(=O)[C@H]([C@@H](C)O)NC(=O)[C@H]([C@@H](C)O)NC(=O)[C@H](Cc2c[nH]cn2)NC(=O)[C@H](Cc2ccccc2)NC(=O)[C@H]([C@@H](C)O)NC(=O)[C@H](C(C)C)NC(=O)[C@@H](Cc2ccc(O)cc2)NC(=O)CSC[C@@H](C(=O)NCC(N)=O)NC(=O)[C@H](C)NC(=O)[C@@H]2CCCN2C1=O ; its IC50: 1.93

----------
Positions of bridges follow the written chain, without caps; N, C: chain ends. Residues, ends and D or L forms follow the SMILES beside them.
The following compounds have recorded IC50 on UniProt:P0DTD1.
Entry rule: numbers only, all in nM.

>>> reading("CC(C)[C@@H]1NC(=O)[C@@H](Cc2ccc(O)cc2)NC(=O)CC[C@@H](C(N)=O)NC(=O)[C@@H]2CCCN2C(=O)[C@@H]2CCCN2C(=O)C2CSc3c(F)c(F)c(c(F)c3F)-c3c(F)c(F)c(c(F)c3F)SC[C@H](NC1=O)C(=O)N[C@@H](Cc1ccccc1)C(=O)N[C@@H](Cc1c[nH]cn1)C(=O)N[C@@H]([C@@H](C)O)C(=O)N[C@@H]([C@@H](C)O)C(=O)N[C@@H]([C@@H](C)O)C(=O)N1CCC[C@H]1C(=O)N[C@@H](Cc1ccccc1)C(=O)N2")
4510
>>> reading("CC[C@H](C)[C@@H]1NC(=O)[C@H](Cc2ccc(O)cc2)NC(=O)[C@H](CO)NC(=O)[C@H](CC(C)C)NC(=O)CNC(=O)[C@H](Cc2ccc(O)cc2)NC(=O)[C@H](CO)NC(=O)[C@H](CCC(N)=O)NC(=O)[C@H](Cc2ccccc2)NC(=O)[C@@H](Cc2ccc(O)cc2)NC(=O)CSC[C@@H](C(=O)NCC(N)=O)NC(=O)CNC(=O)[C@@H]2CCCN2C1=O")
460
>>> reading("CC(C)C[C@@H]1NC(=O)[C@H](Cc2ccccc2)NC(=O)[C@@H](Cc2ccc(O)cc2)NC(=O)CSC[C@@H](C(=O)NCC(N)=O)NC(=O)CNC(=O)[C@H](Cc2ccccc2)NC(=O)[C@H]([C@@H](C)O)NC(=O)[C@H](Cc2ccc(O)cc2)NC(=O)[C@H](CCCNC(=N)N)NC(=O)[C@H](Cc2ccc(O)cc2)NC(=O)[C@@H]2CCCN2C(=O)[C@@H]2CCCN2C1=O")
1450

// next item, IC50 requested
// IC50 value for CC(C)C[C@@H]1NC(=O)[C@H](CC(N)=O)NC(=O)[C@H](Cc2ccc(O)cc2)NC(=O)CSC[C@@H](C(=O)NCC(N)=O)NC(=O)[C@H](Cc2ccc(O)cc2)NC(=O)[C@H](CCC(N)=O)NC(=O)[C@H]([C@@H](C)O)NC(=O)[C@H]([C@@H](C)O)NC(=O)[C@H](Cc2c[nH]c3ccccc23)NC(=O)[C@H](CC(=O)O)NC(=O)[C@H]([C@@H](C)O)NC(=O)[C@H](CCCNC(=N)N)NC(=O)[C@H](CCC(N)=O)NC(=O)[C@H](Cc2ccccc2)NC1=O ({CH2CO}-YNLFQRTDWTTQYCG-NH2; thioether N-14) : 500
